Measured values drawn from patent US20110046147A1 for this set.

measurement.protocol: In vivo pharmacokinetics (rat), peroral cassette dosing
Set-up: species or system Wistar rats
condition.set: male, Wistar, po, 10 mg/kg, plasma, read-out: Cmax obs (highest measured concentration)
Method: In vivo pharmacokinetics (rat): The compounds 29, 45, 47 and 59 and a reference compound were administered to adult male Wistar rats (n=4) perorally in a cassette dosing method (vehicle: Labrasol/water 1/1). The plasma profiles were established by means of LC-MS/MS. […]
parameter: Cmax (ng/mL)
Give just the number in ng/mL; leave the unit off.

Input Oc1ccc(-c2ccc(-c3cccc(O)c3)s2)cc1 [Compound 29, 3-[5-(4-Hydroxyphenyl)-2-thienyl]phenol] . Output Cmax: 7.8

----------
measurement.target: 17β-HSD1 (Homo sapiens, UniProt P14061)
Construct: In both cases, human placenta served as the enzyme source; from tissue; host or cells: human placenta
Sequence (P14061 whole entry): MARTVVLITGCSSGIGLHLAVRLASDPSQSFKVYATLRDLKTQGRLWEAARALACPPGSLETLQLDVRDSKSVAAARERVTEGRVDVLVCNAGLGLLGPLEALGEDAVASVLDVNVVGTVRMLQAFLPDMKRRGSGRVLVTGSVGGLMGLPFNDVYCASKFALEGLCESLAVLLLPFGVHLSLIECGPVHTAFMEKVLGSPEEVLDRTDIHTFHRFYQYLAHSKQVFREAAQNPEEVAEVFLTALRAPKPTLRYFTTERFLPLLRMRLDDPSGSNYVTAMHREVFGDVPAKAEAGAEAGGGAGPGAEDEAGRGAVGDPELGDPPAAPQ
measurement.protocol: Inhibition of 17β-HSD1 (estrone to estradiol, radio-HPLC)
Format: biochemical
condition.set: ratio of IC50 values
parameter: Selectivity IC50 (17β-HSD2)/IC50 (17β-HSD1)
Could you keep your reply to the number by itself?

Would you please look over these solved cases?
compound="Oc1cccc(-c2ccc(-c3ccc(O)c(O)c3)s2)c1 [Compound 46]" assay_result=2.1
compound="Oc1ccc(-c2cnc(-c3cccc(O)c3)o2)cc1 [Compound 8]" assay_result=1.8
compound="Oc1ccc(-c2ccsc2-c2cccc(O)c2)cc1 [Compound 28, 3-[3-(4-Hydroxyphenyl)-2-thienyl]phenol]" assay_result=0.5
compound="Oc1cccc(-c2ccc(-c3cccc(O)c3)nc2)c1 [Compound 57, 3,3′-Pyridine-2,5-diyldiphenol]" assay_result=34
compound="Oc1cccc(-c2csc(-c3cccc(O)c3)c2)c1 [Compound 34, 3,3′-Thiene-2,4-diyldiphenol]" assay_result=3.3

Item Cc1cc(-c2csc(-c3cccc(O)c3)c2)ccc1O [Compound 55] ; assay system 17β-HSD1 (Homo sapiens, UniProt P14061); Selectivity IC50 (17β-HSD2)/IC50 (17β-HSD1) reported as 8.7

----------
Target protein (sequence): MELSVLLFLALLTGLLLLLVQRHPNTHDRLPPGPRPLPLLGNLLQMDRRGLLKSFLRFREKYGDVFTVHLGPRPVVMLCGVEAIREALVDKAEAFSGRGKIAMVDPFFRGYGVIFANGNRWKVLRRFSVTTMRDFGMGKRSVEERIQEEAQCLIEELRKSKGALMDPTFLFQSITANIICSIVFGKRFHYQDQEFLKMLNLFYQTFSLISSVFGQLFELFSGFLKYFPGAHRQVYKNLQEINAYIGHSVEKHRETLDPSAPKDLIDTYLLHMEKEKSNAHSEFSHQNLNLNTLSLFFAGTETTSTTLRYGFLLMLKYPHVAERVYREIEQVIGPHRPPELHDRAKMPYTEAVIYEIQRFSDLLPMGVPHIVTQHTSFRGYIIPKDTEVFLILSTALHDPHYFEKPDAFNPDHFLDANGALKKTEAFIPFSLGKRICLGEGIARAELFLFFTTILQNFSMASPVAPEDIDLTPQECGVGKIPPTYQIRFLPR
parameter: IC50 (µM)
Give just the number in µM; leave the unit off.

Input Oc1ccc(-c2ccsc2-c2cccc(O)c2)cc1 [Compound 28, 3-[3-(4-Hydroxyphenyl)-2-thienyl]phenol] . Output IC50: 18.8

----------
Target sequence: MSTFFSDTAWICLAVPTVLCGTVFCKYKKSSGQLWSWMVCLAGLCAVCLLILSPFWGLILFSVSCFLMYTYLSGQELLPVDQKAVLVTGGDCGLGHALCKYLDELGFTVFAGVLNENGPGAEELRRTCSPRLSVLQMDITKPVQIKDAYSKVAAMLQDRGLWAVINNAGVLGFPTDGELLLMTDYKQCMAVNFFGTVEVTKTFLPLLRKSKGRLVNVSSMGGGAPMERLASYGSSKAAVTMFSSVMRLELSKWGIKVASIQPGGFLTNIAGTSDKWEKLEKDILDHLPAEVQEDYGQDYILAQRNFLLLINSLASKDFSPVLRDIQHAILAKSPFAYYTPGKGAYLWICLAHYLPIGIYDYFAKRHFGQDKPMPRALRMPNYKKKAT
Listed here are compounds together with their documented IC50.
Give just the number in µM; leave the unit off.

Would you please look over these solved cases?
compound=Oc1ccc(-c2cnc(-c3cccc(O)c3)s2)cc1 scale_unit=µM assay_result=4
compound=Oc1cccc(-c2nnc(-c3cccc(O)c3)nn2)c1 scale_unit=µM assay_result=5.1
compound=Oc1cccc(-c2cnc(-c3cccc(O)c3)cn2)c1 scale_unit=µM assay_result=5.5
compound=Oc1cccc(-c2ccc(-c3ccc(O)c(F)c3)s2)c1 scale_unit=µM assay_result=0.94

Input Oc1cccc(-c2cnc(-c3cccc(O)c3)s2)c1 . Output IC50: 2.5

Input Oc1ccc(-c2cccc(-c3ccc(O)cc3)c2)cc1 [Compound 41, [1,1′;3′,1″]Terphenyl-4,4″-diol] . Output IC50: 2.2

Input Oc1ccc(-c2ccc(-c3cccc(O)c3)s2)cc1 [Compound 29, 3-[5-(4-Hydroxyphenyl)-2-thienyl]phenol] . Output IC50: 1.95

Input Oc1cccc(-c2csc(-c3cccc(O)c3)n2)c1 . Output IC50: 2.22

----------
measurement.target: 17β-HSD1 (Homo sapiens, UniProt P14061)
Construct: In both cases, human placenta served as the enzyme source; from tissue; host or cells: human placenta
measurement.protocol: Inhibition of 17β-HSD1 (estrone to estradiol, radio-HPLC)
Format: biochemical
condition.set: ratio of IC50 values
Experimental: In the 17β-HSD1 test, NADH is employed as a cosubstrate at a final concentration of 500 μM in order to avoid the product inhibition occurring with NADPH. The enzyme preparation is diluted with test buffer to such an extent that the control conversion is 10 to maximally 20% (about 1:650). […] After the reaction, the substrate and product are extracted by partitioning with ether, separated by chromatography (HPLC) and quantified by means of radiodetection.
Okay, here is how we bin by Selectivity IC50 (17β-HSD2)/IC50 (17β-HSD1): Low = under 5, Medium = from 5 up to 20, High = 20 and over

A selection of reference data follows.
compound="Oc1ccc(-c2ccc(-c3cccc(O)c3)s2)cc1 [Compound 29, 3-[5-(4-Hydroxyphenyl)-2-thienyl]phenol]" category_label=High
compound="Oc1ccc(-c2cccc(-c3cccc(O)c3)c2)cc1 [Compound 43, [1,1′;3′,1″]Terphenyl-4,3″-diol]" category_label=Low
compound="Oc1cccc(-c2ccc(-c3ccc(O)c(F)c3)s2)c1 [Compound 47]" category_label=High
compound="Oc1ccc(-c2ccc(-c3cccc(O)c3)cc2)cc1 [Compound 44, [1,1′;4′,1″]Terphenyl-4,3″-diol]" category_label=Medium
compound="Cc1cc(-c2ccc(-c3cccc(O)c3)s2)ccc1O [Compound 45]" category_label=High
compound="Oc1ccc(-c2cc(-c3cccc(O)c3)on2)cc1 [Compound 18]" category_label=Low

-- ask Bin? Oc1cccc(-c2ccc(-c3cccc(O)c3)s2)c1 [Compound 31, 3,3′-Thiene-2,5-diyldiphenol]
-- reply Medium

-- ask Bin? Oc1cccc(-c2ccc(-c3cc(F)c(O)c(F)c3)s2)c1 [Compound 48]
-- reply Low

-- ask Bin? Oc1cccc(-c2nnc(-c3cccc(O)c3)nn2)c1 [Compound 59]
-- reply High

-- ask Bin? Oc1ccc(-c2ncc(-c3cccc(O)c3)s2)cc1 [Compound 20]
-- reply Medium

-- ask Bin? Oc1cccc(-c2ccc(-c3cccc(O)c3)cc2)c1 [Compound 42, [1,1′,4′,1″]Terphenyl-3,3′-diol]
-- reply High

-- ask Bin? Oc1cccc(-c2csc(-c3cccc(O)c3)n2)c1 [Compound 26, 3,3′-(1,3-Thiazole-2,4-diyl)diphenol]
-- reply Medium

-- ask Bin? Oc1ccc(-c2nsc(-c3cccc(O)c3)n2)cc1 [Compound 40]
-- reply Medium

-- ask Bin? Oc1cccc(-c2nsc(-c3cccc(O)c3)n2)c1 [Compound 37]
-- reply Low

-- ask Bin? Oc1ccc(-c2cccc(-c3ccc(O)cc3)c2)cc1 [Compound 41, [1,1′;3′,1″]Terphenyl-4,4″-diol]
-- reply Low

-- ask Bin? Oc1ccc(-c2csc(-c3cccc(O)c3)c2)cc1 [Compound 33, 3-[4-(4-Hydroxyphenyl)-2-thienyl]phenol]
-- reply Medium

----------
measurement.target: CYP3A4 (Homo sapiens, UniProt P08684)
Sequence (P08684 whole entry): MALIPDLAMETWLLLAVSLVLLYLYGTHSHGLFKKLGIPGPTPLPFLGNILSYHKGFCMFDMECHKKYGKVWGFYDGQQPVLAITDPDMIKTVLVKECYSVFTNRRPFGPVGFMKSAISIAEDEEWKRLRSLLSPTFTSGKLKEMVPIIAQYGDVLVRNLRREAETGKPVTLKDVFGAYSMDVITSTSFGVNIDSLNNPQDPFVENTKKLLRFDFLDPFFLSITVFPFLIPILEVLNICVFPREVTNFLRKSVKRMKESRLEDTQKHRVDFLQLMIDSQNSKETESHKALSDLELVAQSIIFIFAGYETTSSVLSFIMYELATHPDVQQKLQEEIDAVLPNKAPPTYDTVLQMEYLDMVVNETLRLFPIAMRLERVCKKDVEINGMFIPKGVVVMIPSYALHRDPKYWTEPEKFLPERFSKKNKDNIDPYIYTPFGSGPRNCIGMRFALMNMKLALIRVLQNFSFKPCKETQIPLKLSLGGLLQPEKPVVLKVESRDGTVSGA
parameter: pIC50
// field semantics: pIC50 = negative decimal log of concentration (mol/L)

Item Oc1ccc(-c2ccsc2-c2cccc(O)c2)cc1 [Compound 28, 3-[3-(4-Hydroxyphenyl)-2-thienyl]phenol] ; assay system CYP3A4 (Homo sapiens, UniProt P08684); pIC50 reported as 5.13

----------
Listed here are compounds together with their documented pIC50.
measurement.target: 17β-HSD2 (Homo sapiens)
// field semantics: pIC50 = negative decimal log of concentration (mol/L)

Would you please look over these solved cases?
compound=Oc1ccc(-c2cnc(-c3cccc(O)c3)o2)cc1 parameter=pIC50 assay_result=5.99
compound="Oc1ccc(-c2csc(-c3cccc(O)c3)c2)cc1 [Compound 33, 3-[4-(4-Hydroxyphenyl)-2-thienyl]phenol]" parameter=pIC50 assay_result=5.90
compound=Cc1cc(-c2ccc(-c3cccc(O)c3)s2)ccc1O parameter=pIC50 assay_result=5.71
compound=Cc1cc(-c2cnc(-c3cccc(O)c3)s2)ccc1O parameter=pIC50 assay_result=5.69
compound=Oc1cccc(-c2ccc(-c3ccccc3)s2)c1 parameter=pIC50 assay_result=5.63
compound="Oc1ccc(-c2ccsc2-c2cccc(O)c2)cc1 [Compound 28, 3-[3-(4-Hydroxyphenyl)-2-thienyl]phenol]" parameter=pIC50 assay_result=5.74

Could you now look at the following compound, please?
Input Oc1ccc(-c2cc(-c3cccc(O)c3)cs2)cc1 [Compound 32, 3-[5-(4-Hydroxyphenyl)-3-thienyl]phenol] . Output pIC50: 5.77
